# assay_notes: protein stability index of a GFP-peptide fusion (GPS, HEK-293T) (PSI 1-6); higher = more stable;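 note: 24-mer peptide tiles fused after GFP, lentivirally expressed, FACS-sorted into six equal bins by GFP/DsRed ratio, decoded by Illumina sequencing, PSI is the read-weighted mean bin number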
# experimental_conditions: treatment: DMSO; c terminus: a fixed tail appended
Here the recorded protein stability index is given for each entry.
Answer using only a numeral; do not append any unit.

Below are worked cases with known answers.
> print(dat)
                      sequence.content  readout.number
1      GHLFPPPTPIFAGGANDRWVRSVS [WSB1]            2.66
2     FRNLVADRVLNYTSWSQHCPWEPQ [SPAG8]            2.21
3      ETTSQQERLQAIAEKRKRQAEIEN [PALM]            4.94
4     TEQAAEYVPEKVKKAEKKLEENPY [CSTF3]            5.52
5  LRPTLLLTSLHHFMHSRNLYILGN [PNLIPRP1]            3.08

Exam item: Write down protein stability index measured for item AQVLLAMHANVEDRGIKGDITPLM [ANKRD17]
Marked response: 2.99

Exam item: Report measured protein stability index; entry is SPRLTFQCLEDLVNHYSEVADGLC [SLA]
Marked response: 2.79

Exam item: State its protein stability index: EPGGPGWLPESDCETVTCCLFSER [SMAD6]
Marked response: 3.96
